test: Inhibition of Acinetobacter baumannii topoisomerase 4 decatenation incubated for 30 mins in presence of ATP by ethidium bromide staining based analysis
observation.type: IC50

| smiles.str | result |
| --- | --- |
| CO[C@@H]1[C@@H](OC(N)=O)[C@@H](O)[C@H](Oc2ccc3c(O)c(NC(=O)c4ccc(O)c(CC=C(C)C)c4)c(=O)oc3c2C)OC1(C)C | 9.46 µM |

###

test: Thermodynamic solubility of compound in 100 mM PBS buffer at pH 7.4 incubated for 48 hrs under shaking condition by LC-MS/MS analysis; format: physicochemical; conditions: read-out: Therm_solubility

| smiles.str | quantity.unit | solubility thermodynamic at 48 h |
| --- | --- | --- |
| Cc1[nH]c(C(=O)Nc2nc3c(N4[C@@H]5CC[C@H]4COC5)cc(C(=O)O)cc3s2)c(Cl)c1Cl | µM | 0.26 |
